Test: Half life in Sprague-Dawley rat at 5 mg/kg, po measured upto 24 hrs by LC-MS/MS analysis
Conditions: in vivo
Everything with half-life at 24 h lower than 100 min is False; everything else, including exactly 100 min, is True.

[[record]]
compound = "COC1(CN2Cc3cc4c(cc3C2)C(=O)N(C2CCC(=O)NC2=O)C4=O)CCN(C(=O)c2ccc(N3CCC4(CC3)C[C@H](C)N(c3ccc(C#N)c(Cl)c3)C4)cc2)CC1 (stereo partly drawn)"
qualitative_label = "True"

[[record]]
compound = "C[C@H]1CC2(CCN(c3ccc(C(=O)N4CCC(N5Cc6cc7c(cc6C5)C(=O)N(C5CCC(=O)NC5=O)C7=O)CC4)cc3)CC2)CN1c1ccc(C#N)c(Cl)c1 (stereo partly drawn)"
qualitative_label = "True"

[[record]]
compound = "C[C@H]1CC2(CCN(c3ccc(C(=O)N4CCC(C)(CN5Cc6cc7c(cc6C5)C(=O)N(C5CCC(=O)NC5=O)C7=O)CC4)cc3)CC2)CN1c1ccc(C#N)c(Cl)c1 (stereo partly drawn)"
qualitative_label = "True"

[[record]]
compound = "C[C@H]1CC2(CCN(c3ccc(C(=O)N4CCC(CN5Cc6cc7c(cc6C5)C(=O)N(C5CCC(=O)NC5=O)C7=O)CC4)cc3)CC2)CN1c1ccc(C#N)c(Cl)c1 (stereo partly drawn)"
qualitative_label = "True"

[[record]]
compound = "C[C@H]1CC2(CCN(c3ccc(C(=O)N4CCC(F)(CN5Cc6cc7c(cc6C5)C(=O)N(C5CCC(=O)NC5=O)C7=O)CC4)cc3)CC2)CN1c1ccc(C#N)c(Cl)c1 (stereo partly drawn)"
qualitative_label = "True"

[[record]]
compound = "C[C@H]1CC2(CCN(c3ccc(C(=O)N4CC(N5Cc6cc7c(cc6C5)C(=O)N(C5CCC(=O)NC5=O)C7=O)C4)cc3)CC2)CN1c1ccc(C#N)c(Cl)c1 (stereo partly drawn)"
qualitative_label = "True"

[[record]]
compound = "C[C@H]1CC2(CCN(c3ccc(C(=O)N4CCC(CN5Cc6cc7c(cc6C5)C(=O)N(C5CCC(=O)NC5=O)C7=O)CC4)nn3)CC2)CN1c1ccc(C#N)c(Cl)c1 (stereo partly drawn)"
qualitative_label = "False"

[[record]]
compound = "C[C@H]1CC2(CCN(c3ccc(C(=O)N4CC(CN5Cc6cc7c(cc6C5)C(=O)N(C5CCC(=O)NC5=O)C7=O)C4)cc3)CC2)CN1c1ccc(C#N)c(Cl)c1 (stereo partly drawn)"
qualitative_label = "False"


* * *

Test: Volume of distribution at steady state in Sprague-Dawley rat at 1 mg/kg, iv measured upto 24 hrs by LC-MS/MS analysis
Type: ADME, organism-based
Details: in vivo, read-out: Vdss
Reported Vd by item:
READOUT: Vd (L/kg)

[[record]]
compound = "C[C@H]1CC2(CCN(c3ccc(C(=O)N4CCC(CN5Cc6cc7c(cc6C5)C(=O)N(C5CCC(=O)NC5=O)C7=O)CC4)nn3)CC2)CN1c1ccc(C#N)c(Cl)c1 (some centres undefined)"
experimental_result = 2.2

[[record]]
compound = "C[C@H]1CC2(CCN(c3cnc(C(=O)N4CCC(CN5Cc6cc7c(cc6C5)C(=O)N(C5CCC(=O)NC5=O)C7=O)CC4)cn3)CC2)CN1c1ccc(C#N)c(Cl)c1 (some centres undefined)"
experimental_result = 2.3

[[record]]
compound = "N#Cc1ccc(O[C@H]2CC[C@H](NC(=O)c3ccc(N4CCC(CN5CCN(c6cc7c(cc6F)C(=O)N(C6CCC(=O)NC6=O)C7=O)CC5)CC4)nn3)CC2)cc1Cl (some centres undefined) [BAVDEGALUTAMIDE]"
experimental_result = 4.6

[[record]]
compound = "CN(c1ccc(C#N)c(Cl)c1)[C@H]1CC[C@H](NC(=O)c2ccc(N3CCN(C4CN(c5ccc6c(c5)C(=O)N(C5CCC(=O)NC5=O)C6=O)C4)CC3)cc2)CC1 (some centres undefined)"
experimental_result = 5.3


* * *

Reported bioavailability by item:
Experiment: Oral bioavailability in Sprague-Dawley rat at 3 mg/kg measured upto 24 hrs by LC-MS/MS analysis
Type: ADME, organism-based
Conditions: in vivo
READOUT: bioavailability (%)

[[record]]
compound = "N#Cc1ccc(O[C@H]2CC[C@H](NC(=O)c3ccc(N4CCC(CN5CCN(c6cc7c(cc6F)C(=O)N(C6CCC(=O)NC6=O)C7=O)CC5)CC4)nn3)CC2)cc1Cl (some centres undefined) [BAVDEGALUTAMIDE]"
readout = "bioavailability"
experimental_result = 52

[[record]]
compound = "C[C@H]1CC2(CCN(c3ccc(C(=O)N4CCC(CN5Cc6cc7c(cc6C5)C(=O)N(C5CCC(=O)NC5=O)C7=O)CC4)nn3)CC2)CN1c1ccc(C#N)c(Cl)c1 (some centres undefined)"
readout = "bioavailability"
experimental_result = 36

[[record]]
compound = "C[C@H]1CC2(CCN(c3cnc(C(=O)N4CCC(CN5Cc6cc7c(cc6C5)C(=O)N(C5CCC(=O)NC5=O)C7=O)CC4)cn3)CC2)CN1c1ccc(C#N)c(Cl)c1 (some centres undefined)"
readout = "bioavailability"
experimental_result = 15

[[record]]
compound = "CN(c1ccc(C#N)c(Cl)c1)[C@H]1CC[C@H](NC(=O)c2ccc(N3CCN(C4CN(c5ccc6c(c5)C(=O)N(C5CCC(=O)NC5=O)C6=O)C4)CC3)cc2)CC1 (some centres undefined)"
readout = "bioavailability"
experimental_result = 13


* * *

Target: Protein cereblon/Androgen receptor (Homo sapiens, UniProt P10275+Q96SW2, T878A)
Assay: PROTAC activity at AR T878A mutant/CRBN in human LNCaP cells assessed as induction of androgen receptor degradation measured at 24 hrs by Western blot analysis
Format: cell-based
READOUT: DC50 (nM)

[[record]]
compound = "COC1(CN2Cc3cc4c(cc3C2)C(=O)N(C2CCC(=O)NC2=O)C4=O)CCN(C(=O)c2ccc(N3CCC4(CC3)C[C@H](C)N(c3ccc(C#N)c(Cl)c3)C4)cc2)CC1 (stereo partly drawn)"
readout = "DC50"
unit_spec = "nM"
experimental_result = 1

[[record]]
compound = "C[C@H]1CC2(CCN(c3ccc(C(=O)N4CCC(CN5Cc6cc7c(cc6C5)C(=O)N(C5CCC(=O)NC5=O)C7=O)CC4)nc3)CC2)CN1c1ccc(C#N)c(Cl)c1 (stereo partly drawn)"
readout = "DC50"
unit_spec = "nM"
experimental_result = 4.6

[[record]]
compound = "C[C@H]1CC2(CCN(c3ccc(C(=O)N4CCC(N5Cc6cc7c(cc6C5)C(=O)N(C5CCC(=O)NC5=O)C7=O)CC4)cc3)CC2)CN1c1ccc(C#N)c(Cl)c1 (stereo partly drawn)"
readout = "DC50"
unit_spec = "nM"
experimental_result = 0.8


* * *

Biological target: Protein cereblon/Androgen receptor (Homo sapiens, UniProt P10275+Q96SW2)
Sequence (P10275 whole entry): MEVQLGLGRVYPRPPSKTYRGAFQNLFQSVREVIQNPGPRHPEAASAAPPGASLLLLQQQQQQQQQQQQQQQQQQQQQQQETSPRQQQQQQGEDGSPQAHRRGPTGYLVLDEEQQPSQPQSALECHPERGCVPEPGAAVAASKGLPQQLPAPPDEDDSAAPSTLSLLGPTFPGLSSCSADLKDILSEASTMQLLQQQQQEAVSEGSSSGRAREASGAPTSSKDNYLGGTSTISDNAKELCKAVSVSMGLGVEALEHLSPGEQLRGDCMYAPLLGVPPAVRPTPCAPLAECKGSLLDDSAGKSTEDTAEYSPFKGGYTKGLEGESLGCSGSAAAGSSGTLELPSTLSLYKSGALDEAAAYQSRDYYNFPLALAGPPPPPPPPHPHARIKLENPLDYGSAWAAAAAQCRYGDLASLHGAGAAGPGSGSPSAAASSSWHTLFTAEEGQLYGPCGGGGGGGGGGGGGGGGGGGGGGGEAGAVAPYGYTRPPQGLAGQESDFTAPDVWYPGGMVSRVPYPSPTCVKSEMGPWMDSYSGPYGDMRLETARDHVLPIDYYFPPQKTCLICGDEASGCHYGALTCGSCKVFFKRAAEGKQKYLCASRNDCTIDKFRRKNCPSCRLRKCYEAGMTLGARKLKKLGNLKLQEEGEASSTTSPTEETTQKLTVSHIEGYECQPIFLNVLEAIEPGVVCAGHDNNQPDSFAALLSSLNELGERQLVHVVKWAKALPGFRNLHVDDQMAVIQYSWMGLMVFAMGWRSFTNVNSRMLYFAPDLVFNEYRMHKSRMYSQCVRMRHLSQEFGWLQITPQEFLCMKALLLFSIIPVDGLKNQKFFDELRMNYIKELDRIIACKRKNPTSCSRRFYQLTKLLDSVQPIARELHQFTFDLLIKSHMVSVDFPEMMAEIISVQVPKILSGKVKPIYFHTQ
Sequence (Q96SW2 whole entry): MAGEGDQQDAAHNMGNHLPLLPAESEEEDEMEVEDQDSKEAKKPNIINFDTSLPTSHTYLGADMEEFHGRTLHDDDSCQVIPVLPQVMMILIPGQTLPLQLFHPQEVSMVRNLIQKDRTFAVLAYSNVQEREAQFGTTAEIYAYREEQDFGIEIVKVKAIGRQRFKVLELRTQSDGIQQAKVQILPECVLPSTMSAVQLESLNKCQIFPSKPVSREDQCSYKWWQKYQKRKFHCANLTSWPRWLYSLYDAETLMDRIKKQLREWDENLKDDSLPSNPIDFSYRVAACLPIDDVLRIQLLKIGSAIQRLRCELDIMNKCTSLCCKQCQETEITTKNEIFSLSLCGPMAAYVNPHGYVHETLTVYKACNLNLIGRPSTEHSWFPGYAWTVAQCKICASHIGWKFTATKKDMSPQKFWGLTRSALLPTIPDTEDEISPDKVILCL
Test: PROTAC activity at AR/CRBN in AR-positive human VCaP cells assessed as induction of androgen receptor degradation measured at 24 hrs
Assay type: cell-based
Conditions: read-out: DC50
Reported log10 DC50 by item:
READOUT: log10 DC50 (log10 of the value in nM)

[[record]]
molecule = "N#Cc1ccc(N2CCC3(CCN(c4ccc(C(=O)N5CCC(CN6CCc7cc8c(cc7C6)C(=O)N(C6CCC(=O)NC6=O)C8=O)CC5)cc4)CC3)C2)cc1Cl (stereo unspecified)"
readout = "log10 DC50"
experimental_result = 1.40

[[record]]
molecule = "C[C@H]1CC2(CCN(c3ccc(C(=O)N4CC(N5Cc6cc7c(cc6C5)C(=O)N(C5CCC(=O)NC5=O)C7=O)C4)cc3)CC2)CN1c1ccc(C#N)c(Cl)c1 (stereo partly specified)"
readout = "log10 DC50"
experimental_result = -0.15

[[record]]
molecule = "N#Cc1ccc(N2CCC3(CCN(c4ccc(C(=O)N5CCC(CN6Cc7cc8c(cc7C6)C(=O)N(C6CCC(=O)NC6=O)C8=O)CC5)cc4)CC3)C2)cc1Cl (stereo unspecified)"
readout = "log10 DC50"
experimental_result = 0.76

[[record]]
molecule = "C[C@H]1CC2(CCN(c3ccc(C(=O)N4CCC(N5Cc6cc7c(cc6C5)C(=O)N(C5CCC(=O)NC5=O)C7=O)CC4)cc3)CC2)CN1c1ccc(C#N)c(Cl)c1 (stereo partly specified)"
readout = "log10 DC50"
experimental_result = -0.40

[[record]]
molecule = "N#Cc1ccc(N2CCC3(CCN(c4ccc(C(=O)N5CCC(N6Cc7cc8c(cc7C6)C(=O)N(C6CCC(=O)NC6=O)C8=O)CC5)cc4)CC3)C2)cc1Cl (stereo unspecified)"
readout = "log10 DC50"
experimental_result = 0.99

[[record]]
molecule = "C[C@@H]1CC2(CCN(c3ccc(C(=O)N4CCC(CN5Cc6cc7c(cc6C5)C(=O)N(C5CCC(=O)NC5=O)C7=O)CC4)cc3)CC2)CN1c1ccc(C#N)c(Cl)c1 (stereo partly specified)"
readout = "log10 DC50"
experimental_result = 2.59

